Experiment: qHTS assay to identify small molecule agonists of the TGF-beta/Smad signaling pathway (AID 1346859); as to activation: % is scaled to controls: 0 for no effect and ±100 for the full control effect
Details: SBE-bla HEK293T, TGF-beta/Smad beta-lactamase reporter, 5 h; series mostly up to 76.8 µM
Records with an inconclusive call do not appear. Calls of active or inactive are those of the source. Calls follow the shape of the dose curve; as a rule, active = well fitted activation curve with a large enough effect in the signal ratio in the repeat runs (not every such curve was filed as active); inconclusive = weak or mixed curves; inactive = flat fitted curve, though single readings scatter; the % refers to the signal ratio.
Possible outcomes: 1 for active, -1 for inactive

1) CCCCC(CC)COP(=O)(O)O (centres undefined)	-1
2) CO[C@]1(NC(=O)CSC(F)F)C(=O)N2C(C(=O)O)=C(CSc3nnnn3CCO)CO[C@H]21	-1
3) CCC1(CO)COCOC1	-1
4) C[C@@H]1CC(=O)NN=C1c1ccc(NN=C(C#N)C#N)cc1	-1
5) COC(=O)c1nc(Cl)c(Cl)nc1N	1
6) CC=C(Cl)Cl	-1
7) O=C(/C=C/c1ccc(O)c(O)c1)O[C@@H]1C[C@@](OC(=O)/C=C/c2ccc(O)c(O)c2)(C(=O)O)C[C@@H](O)[C@@H]1O	-1
8) FC(F)(F)c1ccccc1Cl	-1
9) CC1=C(Br)C(=O)C(Br)=C/C1=C(/c1ccccc1S(=O)(=O)O)c1cc(Br)c(O)c(Br)c1C	-1
10) COc1cc(Nc2c(C#N)cnc3cc(OCCCN4CCN(C)CC4)c(OC)cc23)c(Cl)cc1Cl	-1
11) Nc1cccc2c1CN(C1CCC(=O)NC1=O)C2=O (centres undefined)	-1
12) CCCCCCCC/C=C\CCCCCCCCCCCC(=O)O	-1
13) CC(C)Nc1cccnc1N1CCN(C(=O)c2cc3cc(NS(C)(=O)=O)ccc3[nH]2)CC1	-1
14) Brc1cc2ccccc2c2ccccc12	-1
15) C(=C\c1ccccc1)/c1ccccc1	-1
16) O=C1NCCN1CCO	-1
17) Cc1ccc(CO)cc1	-1
18) C[C@]1(Cn2ccnn2)[C@H](C(=O)O)N2C(=O)C[C@H]2S1(=O)=O	-1
19) CCCC(C(=O)OCCN(CC)CC)(c1ccccc1)c1ccccc1	-1
20) CCCCCCCCOc1ccc(C(=O)O)cc1	-1
21) CCOC(=O)OC(C)OC(=O)[C@@H]1N2C(=O)[C@@H](NC(=O)[C@H](N)c3ccccc3)[C@H]2SC1(C)C (some centres undefined)	-1
22) CC1(C)S[C@@H]2[C@H](NC(=O)C(c3ccccc3)S(=O)(=O)O)C(=O)N2[C@H]1C(=O)O (some centres undefined)	-1
23) Cc1ccccc1N=C(N)Nc1ccccc1C	-1
24) C[C@@H](CN(C)C)CN1c2ccccc2Sc2ccccc21	-1
